Each entry below carries its recorded log10 solubility kinetic.
# RUN_CONDITIONS: buffer; pH 7.4; 200.0 µM
Note the log scale: values are log10 of solubility kinetic expressed in µg/mL.

[
  {
    "MOLECULE": "COc1ccc2c(c1)c(C(=O)O)c(C)n2-c1ccc(Cl)cc1",
    "log10 solubility kinetic": 1.18
  },
  {
    "MOLECULE": "C#CC(C)(C)NC(=S)NC1CC2C=CC1C2 (stereo not given)",
    "log10 solubility kinetic": 1.45
  },
  {
    "MOLECULE": "COc1ccc(OCC(=O)Nc2ccccc2Cl)cc1",
    "log10 solubility kinetic": 0.65
  },
  {
    "MOLECULE": "O=C([O-])Cc1csc(-c2cccc(Oc3ccccc3)c2)n1.[Na+]",
    "log10 solubility kinetic": 1.69
  },
  {
    "MOLECULE": "CCN(CC)c1ccc(C(=S)NCc2ccccc2)cc1",
    "log10 solubility kinetic": -0.30
  }
]

Req: Could you share which log10 solubility kinetic value was measured for CC(=O)N1C(C)(C)CC(=NOC(=O)c2ccccc2)CC1(C)C ?
Resp: 1.67

Req: Follow-up entry: N#Cc1ccc(NC(=O)CN2CCCCCC2)cc1Cl
Resp: 1.42

Req: Follow-up entry: CCCCc1ccc(NC(=O)Nc2cccnc2)cc1
Resp: 0.60

Req: Follow-up entry: CCOc1ncccc1-c1nc(-c2cccs2)no1
Resp: 0.26

Req: Follow-up entry: CCOC(=O)c1c(C)[nH]c(C(=O)COC(=O)c2cccnc2Cl)c1C
Resp: 0.67

Req: Follow-up entry: NS(=O)(=O)c1ccc(NC(=O)c2ccc3nccnc3c2)cc1
Resp: 0.88

Req: Follow-up entry: CCOc1ccc2[nH]cc(C(=O)NCc3ccccc3)c(=O)c2c1
Resp: -0.05

Req: Follow-up entry: O=C(CSc1ccc(F)cc1)NC12CC3CC(CC(C3)C1)C2
Resp: 0.04

Req: Follow-up entry: CN(C(=O)COC(=O)/C=C/c1cccs1)C1CCCCC1
Resp: 1.25

Req: Follow-up entry: CC1(C)CCN2CCC(C)(C)c3c(O)ccc1c32.CS(=O)(=O)O
Resp: 1.29

Req: Follow-up entry: CN(C(=O)CSc1nc(N)cc(N)n1)C1CCS(=O)(=O)C1 (stereo not given)
Resp: 1.61

====

# RUN_CONDITIONS: buffer; pH 7.4; 200.0 µM
ASSAY_METRIC: log10(solubility kinetic) (log10 of the value in µg/mL)
Note the log scale: values are log10 of solubility kinetic expressed in µg/mL.

These recorded examples may help you get a feel for the data.
[
  {
    "MOLECULE": "CCC1(c2ccc(F)cc2)NC(=O)N(CC(=O)Nc2ccc3c(c2)OCCO3)C1=O (stereo not drawn)",
    "ASSAY_METRIC": "log10(solubility kinetic)",
    "REPORTED_RESULT": 1.20
  },
  {
    "MOLECULE": "Cc1ccc(OCCNC(=O)Cc2ccc(F)cc2)cc1",
    "ASSAY_METRIC": "log10(solubility kinetic)",
    "REPORTED_RESULT": 1.47
  },
  {
    "MOLECULE": "CCc1nc(C(N)=O)c2[nH]c(=O)n(-c3ccccc3F)c2n1",
    "ASSAY_METRIC": "log10(solubility kinetic)",
    "REPORTED_RESULT": 1.01
  },
  {
    "MOLECULE": "COc1ccc(NC(=O)NC(C)c2ccccc2)cc1 (stereo not drawn)",
    "ASSAY_METRIC": "log10(solubility kinetic)",
    "REPORTED_RESULT": 1.19
  },
  {
    "MOLECULE": "O=[N+]([O-])c1ccc(SCCc2ccccn2)cc1",
    "ASSAY_METRIC": "log10(solubility kinetic)",
    "REPORTED_RESULT": 1.49
  }
]

Now let's try a different one.
Req: Could you share which log10(solubility kinetic) value was measured for O=C(NC(=O)c1ccc(F)cc1F)Nc1ccc(Cl)cc1 ?
Resp: 0.45

====

Each entry below carries its recorded solubility kinetic.
# RUN_CONDITIONS: buffer; pH 7.4; 200.0 µM
State just the number; it will be interpreted in µg/mL.

[
  {
    "MOLECULE": "O=S(=O)(NC1CCSc2ccccc21)c1ccc(Cl)nc1 (configuration not stated)",
    "solubility kinetic [µg/mL]": 11.6
  },
  {
    "MOLECULE": "C#CCOc1ccc(/C=C2/C(=O)ON=C2C)cc1OCC",
    "solubility kinetic [µg/mL]": 27.1
  },
  {
    "MOLECULE": "C=CCNC(=S)/N=c1/ccccn1CC",
    "solubility kinetic [µg/mL]": 28.7
  },
  {
    "MOLECULE": "Cc1c(C(=O)NCCCn2ccnc2)oc2ccccc12",
    "solubility kinetic [µg/mL]": 34.1
  },
  {
    "MOLECULE": "Cc1cccc(NC(=O)N2CCCc3ccccc32)c1C",
    "solubility kinetic [µg/mL]": 13.2
  }
]

Req: Could you share which solubility kinetic value was measured for O=C(COC(=O)c1ccco1)NCc1ccc(Cl)cc1Cl ?
Resp: 14.1

====

# RUN_CONDITIONS: buffer; pH 7.4; 200.0 µM
ASSAY_METRIC: solubility kinetic

These recorded examples may help you get a feel for the data.
[
  {
    "COMPOUND": "O=C(c1cc(=O)[nH]c2ccccc12)N1CCc2ccccc2C1",
    "solubility kinetic": "42.9 µg/mL"
  },
  {
    "COMPOUND": "Cc1ccc(C(=O)Nc2cccc(C(O)c3ccccc3)c2)cc1 (stereo unspecified)",
    "solubility kinetic": "2.5 µg/mL"
  },
  {
    "COMPOUND": "O=C(Nc1ccccc1N1CCCC1)c1ccc([N+](=O)[O-])o1",
    "solubility kinetic": "44.9 µg/mL"
  },
  {
    "COMPOUND": "COc1cccc(/C=C/C(=O)Nc2ccccc2N2CCOCC2)c1",
    "solubility kinetic": "28.1 µg/mL"
  },
  {
    "COMPOUND": "O=C(NC(=S)N1CCN(c2ccccc2)CC1)c1c(F)cccc1F",
    "solubility kinetic": "> 54.2 µg/mL"
  }
]

Req: Could you share which solubility kinetic value was measured for O=S(=O)(c1ccc(Cl)cc1)N1CCC(n2cccc2)CC1 ?
Resp: 0.6 µg/mL

Req: Follow-up entry: Cc1ccc(NC(=O)COC(=O)C2=COCCO2)c([N+](=O)[O-])c1
Resp: 6.6 µg/mL

Req: Follow-up entry: C=Cn1cc[n+](CC(=O)c2ccc(Br)cc2)c1.[Br-]
Resp: > 55.8 µg/mL

====

# RUN_CONDITIONS: buffer; pH 7.4; 200.0 µM
Class fulfilled: solubility kinetic at least 6 µg/mL. Class not fulfilled: solubility kinetic below 6 µg/mL.

Solved entries:
[
  {
    "MOLECULE": "CC1CCN(C(=O)CSc2nnc(N)s2)CC1",
    "CATEGORY_LABEL": "fulfilled"
  },
  {
    "MOLECULE": "NC(=O)C1CCN(C(=O)CCC(=O)c2cccs2)CC1",
    "CATEGORY_LABEL": "fulfilled"
  },
  {
    "MOLECULE": "CCOC(=O)CN1C(=O)C(=O)N(Cc2ccccc2)C1=O",
    "CATEGORY_LABEL": "fulfilled"
  },
  {
    "MOLECULE": "CC(=O)N/C(N)=N/c1nc2cc([N+](=O)[O-])ccc2o1",
    "CATEGORY_LABEL": "not fulfilled"
  },
  {
    "MOLECULE": "Nc1ncnc(Nc2ccccc2Cl)n1",
    "CATEGORY_LABEL": "fulfilled"
  },
  {
    "MOLECULE": "Cc1ccc(-c2csc(NC(=O)c3c(C)noc3C)n2)cc1",
    "CATEGORY_LABEL": "fulfilled"
  },
  {
    "MOLECULE": "O=C(CNC(=O)c1ccccc1)OCN1C(=O)c2ccccc2C1=O",
    "CATEGORY_LABEL": "fulfilled"
  },
  {
    "MOLECULE": "COC(=O)C(C)NC(=O)COc1ccc2ccccc2c1 (stereo not drawn)",
    "CATEGORY_LABEL": "fulfilled"
  }
]

Req: Please indicate if the recorded solubility kinetic for Cc1cc(C)c(Nc2ncnc(N)n2)c(C)c1 meets or exceeds 6 µg/mL.
Resp: fulfilled

Req: Follow-up entry: Cc1cc(C)n(-c2ccc(C(=O)N3CC(C)OC(C)C3)cc2)n1 (stereo not drawn)
Resp: fulfilled

Req: Follow-up entry: CC(C)n1c(=S)[nH]c2cc(Cl)ccc21
Resp: fulfilled

Req: Follow-up entry: Cc1cc(C)nc(SCC(N)=O)n1
Resp: fulfilled

Req: Follow-up entry: O=C(NC1CCCCC1)c1cc(-c2cccs2)on1
Resp: not fulfilled
